assayInfo: Half life in C57BL6/N mouse at 10 mg/kg, po measured upto 24 hrs by LC-MS/MS analysis
Assay type: ADME, organism-based
conditionsUsed: in vivo
List of half-life values.
testReadout: half-life

[[record]]
substancesmiles = "C[C@@H]1Cc2cc(C(N)=O)cnc2N1"
experimentalvalue = "78.5 min"

[[record]]
substancesmiles = "NC(=O)c1cnc2c(c1)CCN2"
experimentalvalue = "23.4 min"

[[record]]
substancesmiles = "CNc1cc(C)c(C(N)=O)cn1"
experimentalvalue = "66.6 min"

[[record]]
substancesmiles = "Cc1c(C(N)=O)cnc2c1CCN2"
experimentalvalue = "22.2 min"

[[record]]
substancesmiles = "NC(=O)c1cnc2c(c1Cl)CCN2"
experimentalvalue = "27 min"


###

Listed below: bioavailability values for each entry.
assayInfo: Oral bioavailability in C57BL6/N mouse at 50 mg/kg measured upto 24 hrs by LC-MS/MS analysis
Type: ADME, organism-based
conditionsUsed: C57BL6/N, in vivo
testReadout: bioavailability (%)

[[record]]
substancesmiles = "Cc1c(C(N)=O)cnc2c1C[C@@H](C)N2"
experimentalvalue = 129

[[record]]
substancesmiles = "NC(=O)c1cnc2c(c1Cl)CCN2"
experimentalvalue = 90


###

Recorded measurements of Cmax, one per entry
assayInfo: Cmax in C57BL6/N mouse at 50 mg/kg, po measured upto 24 hrs by LC-MS/MS analysis
Assay type: ADME, organism-based
Set-up: dose 50 mg/kg, time < 24 hrs, route po
conditionsUsed: in vivo
testReadout: Cmax (ng/mL)

[[record]]
substancesmiles = "Cc1c(C(N)=O)cnc2c1C[C@@H](C)N2"
experimentalvalue = 11200

[[record]]
substancesmiles = "CNc1cc(C)c(C(N)=O)cn1"
experimentalvalue = 38900

[[record]]
substancesmiles = "NC(=O)c1cnc2c(c1Cl)CCN2"
experimentalvalue = 5580

[[record]]
substancesmiles = "Cc1c(C(N)=O)cnc2c1CCN2"
experimentalvalue = 13500

[[record]]
substancesmiles = "NC(=O)c1cnc2c(c1)CCN2"
experimentalvalue = 28700

[[record]]
substancesmiles = "C[C@@H]1Cc2cc(C(N)=O)cnc2N1"
experimentalvalue = 22500


###

assayInfo: Tmax in C57BL6/N mouse at 50 mg/kg, po measured upto 24 hrs by LC-MS/MS analysis
Format: ADME, organism-based
conditionsUsed: in vivo
Item-by-item account of Tmax
testReadout: Tmax (min)

[[record]]
substancesmiles = "Cc1c(C(N)=O)cnc2c1C[C@@H](C)N2"
experimentalvalue = 20

[[record]]
substancesmiles = "C[C@@H]1Cc2cc(C(N)=O)cnc2N1"
experimentalvalue = 15

[[record]]
substancesmiles = "Cc1c(C(N)=O)cnc2c1CCN2"
experimentalvalue = 15

[[record]]
substancesmiles = "NC(=O)c1cnc2c(c1)CCN2"
experimentalvalue = 15

[[record]]
substancesmiles = "NC(=O)c1cnc2c(c1Cl)CCN2"
experimentalvalue = 15


###

Entries and their IC50 values follow.
experimentalSystem: Nicotinamide N-methyltransferase (Homo sapiens, UniProt P40261)
Sequence (P40261 whole entry): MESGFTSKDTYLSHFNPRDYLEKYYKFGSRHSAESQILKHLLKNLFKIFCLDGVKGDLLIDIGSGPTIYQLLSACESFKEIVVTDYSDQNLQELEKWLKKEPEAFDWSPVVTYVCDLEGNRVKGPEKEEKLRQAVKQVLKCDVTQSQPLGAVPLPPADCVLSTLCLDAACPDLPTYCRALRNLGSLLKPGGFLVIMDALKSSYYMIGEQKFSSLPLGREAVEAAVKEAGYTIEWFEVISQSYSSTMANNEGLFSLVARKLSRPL
testReadout: IC50 (µM)

[[record]]
compound = "CNc1cc(C)c(C(N)=S)cn1"
experimentalsystem = "Nicotinamide N-methyltransferase (Homo sapiens, UniProt P40261)"
testreadout = "IC50"
outputunit = "µM"
limitoperator = ">"
experimentalvalue = 10

[[record]]
compound = "COc1ccc(C(N)=O)cn1"
experimentalsystem = "Nicotinamide N-methyltransferase (Homo sapiens, UniProt P40261)"
testreadout = "IC50"
outputunit = "µM"
limitoperator = "="
experimentalvalue = 1.39

[[record]]
compound = "Cc1c(C(N)=O)cnc2c1CCN2"
experimentalsystem = "Nicotinamide N-methyltransferase (Homo sapiens, UniProt P40261)"
testreadout = "IC50"
outputunit = "µM"
limitoperator = "="
experimentalvalue = 0.102

[[record]]
compound = "CNc1cc(C(F)(F)F)c(C(N)=O)cn1"
experimentalsystem = "Nicotinamide N-methyltransferase (Homo sapiens, UniProt P40261)"
testreadout = "IC50"
outputunit = "µM"
limitoperator = ">"
experimentalvalue = 10

[[record]]
compound = "Cc1c(C(N)=O)c[n+]([O-])c2c1CCN2"
experimentalsystem = "Nicotinamide N-methyltransferase (Homo sapiens, UniProt P40261)"
testreadout = "IC50"
outputunit = "µM"
limitoperator = "="
experimentalvalue = 7.05

[[record]]
compound = "Cc1c(C(N)=O)cnc2c1C[C@@H](C)N2"
experimentalsystem = "Nicotinamide N-methyltransferase (Homo sapiens, UniProt P40261)"
testreadout = "IC50"
outputunit = "µM"
limitoperator = "="
experimentalvalue = 0.043

[[record]]
compound = "NC(=O)c1ccc(N)nc1 [6-AMINONICOTINAMIDE]"
experimentalsystem = "Nicotinamide N-methyltransferase (Homo sapiens, UniProt P40261)"
testreadout = "IC50"
outputunit = "µM"
limitoperator = "="
experimentalvalue = 3.62

[[record]]
compound = "NC(=O)c1cnc2[nH]ccc2c1Cl"
experimentalsystem = "Nicotinamide N-methyltransferase (Homo sapiens, UniProt P40261)"
testreadout = "IC50"
outputunit = "µM"
limitoperator = ">"
experimentalvalue = 10

[[record]]
compound = "CNc1cc(Cl)c(C(N)=O)cn1"
experimentalsystem = "Nicotinamide N-methyltransferase (Homo sapiens, UniProt P40261)"
testreadout = "IC50"
outputunit = "µM"
limitoperator = "="
experimentalvalue = 0.639

[[record]]
compound = "CNc1ncc(C(N)=O)c(C)n1"
experimentalsystem = "Nicotinamide N-methyltransferase (Homo sapiens, UniProt P40261)"
testreadout = "IC50"
outputunit = "µM"
limitoperator = ">"
experimentalvalue = 10

[[record]]
compound = "CNc1ncc(C(N)=O)c(C)c1C"
experimentalsystem = "Nicotinamide N-methyltransferase (Homo sapiens, UniProt P40261)"
testreadout = "IC50"
outputunit = "µM"
limitoperator = ">"
experimentalvalue = 10

[[record]]
compound = "C[C@@H]1Nc2ncc(C(N)=O)cc2[C@H]1C"
experimentalsystem = "Nicotinamide N-methyltransferase (Homo sapiens, UniProt P40261)"
testreadout = "IC50"
outputunit = "µM"
limitoperator = ">"
experimentalvalue = 10

